Assay: folding stability dG unfold (combined trypsin and chymotrypsin); higher = more stable
Respond with yes for folding stability dG unfold values of 2 kcal/mol and above, no for values below.

Some entries whose results are on file:
sequenceRecord: SAGGPTLKVKIYLPEEGKVIEFTFEAKKDEAEKIAKELEKLFPGYKLEGVKIFETPDSIELLAVASPESAGG [r13_196_TrMRF]
classAssignment: yes

sequenceRecord: MEFTITVEYDEETNELTVTITYPGYTIEIRIDPDGRIRVEVRMDPGMSEEERKRMQELAEELAKKLEEALKS [r1_468_TrROS_Hall]
classAssignment: yes

sequenceRecord: SAGSMVLTEDKEFEVDYVLPDGTRLTEPVKVKVKTTTVFLKNNSSLVLTFTTVTLTDPKGNKVTFSGSVSAG [r5_257_JUSTAS]
classAssignment: yes

folding stability dG unfold >= 2 kcal/mol for SAGGSMTVSTAPDGTLKVYDPATGKLNPLPVPPVPLVVSRSVQPDKGVVITTTTTPSGEVTVSTTALSAGGS [r16_453_JUSTAS] ? no

Could you verify whether the entry SAGGAEEIRKELGISPEEKVTVKLVVPEGGRPREFTVEMKPDELEKVLEELGVPPEKLEITEVEVIEESAGG [r13_681_JUSTAS] shows folding stability dG unfold of no less than 2 kcal/mol? no

API: above_or_equal(metric=folding stability dG unfold, cutoff=2 kcal/mol) for item SAKEELYIIEIKVYVDGKEVKTITKVITVPEEKLEEKLKELLKKLAEELGLEIKKVEVKIKKLSLEELKSAG [r14_104_TrROS_Hall] yes
